Reported MIC by item:
tested on: 24 clinical isolate strains of C. difficile; assay: Additional MIC determinations, antibacterial activity by OD600 (Example 3); assay type: cell-based, Clostridium difficile; conditions: strain 12066
Could you give me the number in µg/mL? Just the number is fine.

>>> experimentalresult("CC(=O)Oc1c(I)cc(I)cc1C(=O)Nc1ccc(Cl)cc1 [Clioxanide]")
0.063

Give recorded MIC. O=C(Nc1cc(Cl)cc(Cl)c1O)c1c(O)c(Cl)cc(Cl)c1Cl [Oxyclozanide] 0.125

###

system: 24 clinical isolate strains of C. difficile; experiment: Additional MIC determinations, antibacterial activity by OD600 (Example 3); type: cell-based, Clostridium difficile; conditions: strain 7-6011209 (ST002)
# MIC listing for each entry below

Examples with their reported MIC follow.
>>> experimentalresult("O=C(Nc1ccc(Br)cc1)c1cc(Br)cc(Br)c1O [Tribromsalan, 3,4′,5-tribromosalicylanilide]")
"< 8 ng/mL"
>>> experimentalresult("Cc1ncc([N+](=O)[O-])n1CCO")
"31 ng/mL"
>>> experimentalresult("O=C(Nc1ccc(Oc2ccc(Cl)cc2)c(Cl)c1)c1cc(I)cc(I)c1O [Rafoxanide]")
"< 8 ng/mL"
>>> experimentalresult("O=C(Nc1cc(Cl)cc(Cl)c1O)c1c(O)c(Cl)cc(Cl)c1Cl [Oxyclozanide]")
"< 8 ng/mL"
>>> experimentalresult("Cc1cc(C(C#N)c2ccc(Cl)cc2)c(Cl)cc1NC(=O)c1cc(I)cc(I)c1O (stereo not shown)")
"16 ng/mL"

Give the value of MIC reported for the following: CC(=O)Oc1c(I)cc(I)cc1C(=O)Nc1ccc(Cl)cc1 [Clioxanide] < 8 ng/mL

// fetch MIC given entry `CCc1c(Cl)c(O)c(Cl)c(O)c1C(=O)O[C@H]1[C@H](O)[C@H](OC)[C@H](OC/C2=C\C=C\C[C@H](O)/C(C)=C/[C@H](CC)[C@@H](O[C@@H]3OC(C)(C)[C@@H](OC(=O)C(C)C)[C@H](O)[C@@H]3O)/C(C)=C/C(C)=C/C[C@@H]([C@@H](C)O)OC2=O)O[C@@H]1C` < 8 ng/mL
